targetOrSystem: Peroxisome proliferator-activated receptor gamma (Homo sapiens)
runDescription: Activation of human PPARgamma ligand binding domain expressed in COS7 cells by luciferase reporter gene assay relative to pioglitazone
Type: cell-based
Set-up: concentration or dose not given beside the values
particulars: COS-7
measuredQuantity: Activity (%)
Use % as the unit, but write only the number.

The following compounds have reported results that may help.
[[record]]
compound = "CCCCCCC(Sc1nc(Cl)cc(Nc2nc(-c3ccc4ccccc4c3)cs2)n1)C(=O)O (stereo not drawn)"
measuredquantity = "Activity"
measured = 78

[[record]]
compound = "CCCCCCC(Sc1nc(Cl)cc(Nc2nc(-c3ccccc3)c(C)s2)n1)C(=O)O (stereo not drawn)"
measuredquantity = "Activity"
measured = 99

[[record]]
compound = "CCCCCCC(Sc1nc(Cl)cc(Nc2nc(-c3ccc(C)cc3)cs2)n1)C(=O)O (stereo not drawn)"
measuredquantity = "Activity"
measured = 139

[[record]]
compound = "CCCCCCC(Sc1nc(Cl)cc(Nc2nc(-c3ccccc3)cs2)n1)C(=O)O (stereo not drawn)"
measuredquantity = "Activity"
measured = 108

[[record]]
compound = "CCCCCCC(Sc1nc(Cl)cc(Nc2nc(-c3ccc(Cl)cc3)cs2)n1)C(=O)O (stereo not drawn)"
measuredquantity = "Activity"
measured = 90


Hello, I am looking for reported Activity with Peroxisome proliferator-activated receptor gamma (Homo sapiens) for CCCCCCC(Sc1nc(Cl)cc(Nc2nc(-c3ccc(Br)cc3)c(C)s2)n1)C(=O)O (stereo not drawn) . Could you help?
144

Hello, I am looking for reported Activity with Peroxisome proliferator-activated receptor gamma (Homo sapiens) for CCCCCCC(Sc1nc(Cl)cc(Nc2nc(-c3ccc([N+](=O)[O-])cc3)cs2)n1)C(=O)O (stereo not drawn) . Could you help?
130

Hello, I am looking for reported Activity with Peroxisome proliferator-activated receptor gamma (Homo sapiens) for CCCCCCC(Sc1nc(Cl)cc(Nc2nc3c(s2)CCc2cc(OC)ccc2-3)n1)C(=O)O (stereo not drawn) . Could you help?
86

---

targetOrSystem: Peroxisome proliferator-activated receptor alpha (Homo sapiens) (UniProt Q07869)
Sequence (Q07869 whole entry, the tested form may be a part): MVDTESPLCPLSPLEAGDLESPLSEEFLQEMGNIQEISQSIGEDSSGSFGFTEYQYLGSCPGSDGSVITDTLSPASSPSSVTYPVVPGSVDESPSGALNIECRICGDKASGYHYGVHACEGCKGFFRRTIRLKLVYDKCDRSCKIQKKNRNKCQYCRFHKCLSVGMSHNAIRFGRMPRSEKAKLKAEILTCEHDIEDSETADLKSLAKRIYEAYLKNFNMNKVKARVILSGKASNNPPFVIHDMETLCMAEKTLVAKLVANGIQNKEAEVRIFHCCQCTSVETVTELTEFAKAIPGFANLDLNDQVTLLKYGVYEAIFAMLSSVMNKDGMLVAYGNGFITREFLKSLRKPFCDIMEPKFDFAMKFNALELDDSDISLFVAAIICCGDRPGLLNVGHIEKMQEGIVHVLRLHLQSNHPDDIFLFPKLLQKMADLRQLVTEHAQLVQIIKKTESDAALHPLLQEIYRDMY
runDescription: Activation of human PPARalpha ligand binding domain expressed in COS7 cells by luciferase reporter gene assay relative to GW7647
Type: cell-based
Parameters: concentration or dose not given beside the values
particulars: COS-7
measuredQuantity: Activity (%)
Use % as the unit, but write only the number.

The following molecules have reported results that may help.
[[record]]
molecule = "CCCCCCC(Sc1nc(Cl)cc(Nc2nc(-c3ccc(C)cc3)cs2)n1)C(=O)O (stereo not drawn)"
targetorsystem = "Peroxisome proliferator-activated receptor alpha (Homo sapiens) (UniProt Q07869)"
u = "%"
measured = 125

[[record]]
molecule = "CCCCCCC(Sc1nc(Cl)cc(Nc2nc(-c3ccc([N+](=O)[O-])cc3)cs2)n1)C(=O)O (stereo not drawn)"
targetorsystem = "Peroxisome proliferator-activated receptor alpha (Homo sapiens) (UniProt Q07869)"
u = "%"
measured = 89.4

[[record]]
molecule = "CCCCCCC(Sc1nc(Cl)cc(Nc2nc(-c3ccc(F)c(F)c3)cs2)n1)C(=O)O (stereo not drawn)"
targetorsystem = "Peroxisome proliferator-activated receptor alpha (Homo sapiens) (UniProt Q07869)"
u = "%"
measured = 70

[[record]]
molecule = "CCCCCCC(Sc1nc(Cl)cc(Nc2nc3c(s2)CCc2cc(OC)ccc2-3)n1)C(=O)O (stereo not drawn)"
targetorsystem = "Peroxisome proliferator-activated receptor alpha (Homo sapiens) (UniProt Q07869)"
u = "%"
measured = 229

[[record]]
molecule = "CCCCCCC(Sc1nc(Cl)cc(Nc2nc(-c3ccc(Cl)cc3)cs2)n1)C(=O)O (stereo not drawn)"
targetorsystem = "Peroxisome proliferator-activated receptor alpha (Homo sapiens) (UniProt Q07869)"
u = "%"
measured = 57


Which Activity is reported for this molecule? CCC(Sc1nc(Cl)cc(Nc2nc(-c3ccc(Cl)cc3)cs2)n1)C(=O)O (stereo not drawn)
51

Which Activity is reported for this molecule? CCCCCCC(Sc1nc(Cl)cc(Nc2nc(-c3ccc(Br)cc3)c(C)s2)n1)C(=O)O (stereo not drawn)
102

Which Activity is reported for this molecule? CCCCC(Sc1nc(Cl)cc(Nc2nc(-c3ccc(Cl)cc3)cs2)n1)C(=O)O (stereo not drawn)
57

---

targetOrSystem: Polyunsaturated fatty acid 5-lipoxygenase (Homo sapiens, UniProt P09917)
Sequence (P09917 whole entry): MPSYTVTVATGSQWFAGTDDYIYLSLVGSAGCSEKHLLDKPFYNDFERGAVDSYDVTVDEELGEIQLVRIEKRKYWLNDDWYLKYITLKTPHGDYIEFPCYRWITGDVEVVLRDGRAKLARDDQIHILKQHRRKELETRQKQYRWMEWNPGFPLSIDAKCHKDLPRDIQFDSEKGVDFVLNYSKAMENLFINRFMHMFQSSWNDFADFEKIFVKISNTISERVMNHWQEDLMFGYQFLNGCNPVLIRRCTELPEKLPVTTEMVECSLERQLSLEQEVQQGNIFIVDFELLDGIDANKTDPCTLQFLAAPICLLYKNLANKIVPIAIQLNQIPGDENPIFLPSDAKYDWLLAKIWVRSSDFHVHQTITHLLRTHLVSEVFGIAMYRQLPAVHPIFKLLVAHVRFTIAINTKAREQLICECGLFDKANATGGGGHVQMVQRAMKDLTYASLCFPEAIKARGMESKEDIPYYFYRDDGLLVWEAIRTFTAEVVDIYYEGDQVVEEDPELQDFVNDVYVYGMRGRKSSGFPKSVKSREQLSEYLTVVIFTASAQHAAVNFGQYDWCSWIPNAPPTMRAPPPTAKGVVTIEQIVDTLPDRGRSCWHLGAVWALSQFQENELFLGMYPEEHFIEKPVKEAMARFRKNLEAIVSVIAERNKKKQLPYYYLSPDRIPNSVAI
runDescription: Inhibition of 5-LOX in human PMNL cells assessed as reduction in 5-LOX product formation pre-incubated for 15 mins by HPLC based cell-free assay
measuredQuantity: IC50

Hello, I am looking for reported IC50 with Polyunsaturated fatty acid 5-lipoxygenase (Homo sapiens, UniProt P09917) for CCCCCCC(Sc1nc(Cl)cc(Nc2nc(-c3ccc(C(=O)O)cc3)cs2)n1)C(=O)O (stereo unspecified) . Could you help?
> 10 µM

---

Overview of recorded pEC50 for various compounds
targetOrSystem: Peroxisome proliferator-activated receptor gamma (Homo sapiens, UniProt P37231)
runDescription: Activation of human PPARgamma ligand binding domain expressed in COS7 cells by luciferase reporter gene assay
Please treat pEC50 as minus the base-10 logarithm of the molar concentration.

[[record]]
compound = "CCCCC(Sc1nc(Cl)cc(Nc2nc(-c3ccc(Cl)cc3)cs2)n1)C(=O)O (centres undefined)"
targetorsystem = "Peroxisome proliferator-activated receptor gamma (Homo sapiens, UniProt P37231)"
measured = 5.12

[[record]]
compound = "CCCCCCC(Sc1nc(Cl)cc(Nc2nc3c(s2)CCc2cc(OC)ccc2-3)n1)C(=O)O (centres undefined)"
targetorsystem = "Peroxisome proliferator-activated receptor gamma (Homo sapiens, UniProt P37231)"
measured = 5.43


Which pEC50 is reported for this compound? CCCCCCC(Sc1nc(Cl)cc(Nc2nc(-c3ccc(C)cc3)cs2)n1)C(=O)O (centres undefined)
5.14

Which pEC50 is reported for this compound? CCCCCCC(Sc1nc(Cl)cc(Nc2nc(-c3ccccc3)c(C)s2)n1)C(=O)O (centres undefined)
5.64

---

targetOrSystem: Peroxisome proliferator-activated receptor gamma (Homo sapiens, UniProt P37231)
Sequence (P37231 whole entry): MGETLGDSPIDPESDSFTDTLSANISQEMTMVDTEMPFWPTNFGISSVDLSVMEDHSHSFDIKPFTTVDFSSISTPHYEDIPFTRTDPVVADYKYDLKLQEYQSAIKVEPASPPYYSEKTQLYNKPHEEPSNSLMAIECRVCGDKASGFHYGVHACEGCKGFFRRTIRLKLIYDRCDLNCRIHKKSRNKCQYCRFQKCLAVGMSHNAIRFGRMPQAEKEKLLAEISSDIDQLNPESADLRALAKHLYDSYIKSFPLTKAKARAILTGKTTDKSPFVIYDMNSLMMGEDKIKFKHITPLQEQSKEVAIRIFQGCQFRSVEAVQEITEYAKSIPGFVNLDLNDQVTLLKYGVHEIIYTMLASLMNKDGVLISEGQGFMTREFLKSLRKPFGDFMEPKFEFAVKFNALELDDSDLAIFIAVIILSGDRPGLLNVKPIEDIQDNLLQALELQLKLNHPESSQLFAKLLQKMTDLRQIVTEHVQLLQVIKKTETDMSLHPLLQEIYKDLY
runDescription: Activation of human PPARgamma ligand binding domain expressed in COS7 cells by luciferase reporter gene assay
Type: cell-based, COS-7
measuredQuantity: pIC50
Please treat pIC50 as minus the base-10 logarithm of the molar concentration.

[[record]]
compound = "O=C(O)CSc1nc(OCCc2ccccc2)cc(OCCc2ccccc2)n1"
measured = 5.43

[[record]]
compound = "CCCCCCC(Sc1nc(Cl)cc(Nc2ccc3ncccc3c2)n1)C(=O)O (stereo not given)"
measured = 5.46

[[record]]
compound = "CCCCCCC(Sc1nc(Cl)cc(Nc2cccc(C)c2C)n1)C(=O)O (stereo not given)"
measured = 5.44


Hello, I am looking for reported pIC50 with Peroxisome proliferator-activated receptor gamma (Homo sapiens, UniProt P37231) for CCCCCCC(Sc1nc(Cl)cc(Nc2ccc(-c3ccc(C#N)cc3)cc2)n1)C(=O)O (stereo not given) . Could you help?
5.82

Hello, I am looking for reported pIC50 with Peroxisome proliferator-activated receptor gamma (Homo sapiens, UniProt P37231) for Cc1cccc(Nc2cc(Cl)nc(SC(C(=O)O)c3cccc4ccccc34)n2)c1C (stereo not given) . Could you help?
5.21
